Target: SCRIB_1, Q14160
Sequence (Q14160 718-814): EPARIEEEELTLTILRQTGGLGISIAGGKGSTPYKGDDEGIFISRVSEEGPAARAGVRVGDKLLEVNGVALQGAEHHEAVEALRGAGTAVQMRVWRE
Assay: holdup assay
Parameters: key: below the threshold = too weak to quantify, mostly under pKd 3.1 to 4
Details: plain residues with an end cap or a label only (N-terminal biotin on a linker: ado-ado)
observable: pKd

>  <binder>
ELKAEDEVQI [DCHS2, Q6V1P9]

>  <assay-result>
below the threshold

$$$$
>  <binder>
GDSSRKEYFI [GYPC, P04921]

>  <assay-result>
below the threshold

$$$$
>  <binder>
PKSNSSKEYV [CLDN7, O95471]

>  <assay-result>
below the threshold

$$$$
